Reference source: patent US20080026088A1

Answer each item with its documented Emax.
# Tested on: LPS-treated 3T3-L1 adipocytes
# assay.protocol: Adiponectin secretion in LPS/3T3-L1 adipocytes
# Type: cell-based, murine
# assay.context: Mus musculus, 3T3-L1; at the concentration of maximum stimulation (c1); NS = not significantly different from the LPS control
Number in %, nothing else.

Lab note: need Emax for Cc1c(C)c2c(c(C)c1O)CCC(C)(COc1ccc(CC3SC(=O)NC3=O)cc1)O2 (centres unmarked) [Troglitazone] on LPS-treated 3T3-L1 adipocytes, anyone have it?
15

Lab note: need Emax for CCc1ccc(CCOc2ccc(CC3SC(=O)NC3=O)cc2)nc1 (centres unmarked) [Pioglitazone] on LPS-treated 3T3-L1 adipocytes, anyone have it?
12

Lab note: need Emax for CC(C)Cc1ccc(C(C)C(=O)O)cc1 (centres unmarked) [ibuprofen] on LPS-treated 3T3-L1 adipocytes, anyone have it?
22

* * *

# Test system: LPS-treated 3T3-L1 adipocytes
# assay.protocol: Adiponectin secretion in LPS/3T3-L1 adipocytes
# Format: cell-based, murine
# assay.context: LPS/3T3-L1 adipocytes
recorded.endpoint: Concentration of maximum stimulation of adiponectin secretion (µg/mL)
Number in µg/mL, nothing else.

Can you share its Concentration of maximum stimulation of adiponectin secretion? I mean this compound: CC(C)Cc1ccc(C(C)C(=O)O)cc1 (centres unmarked) [ibuprofen]
0.625

Can you share its Concentration of maximum stimulation of adiponectin secretion? I mean this compound: CC(=O)Oc1ccccc1C(=O)O [Aspirin]
113

Can you share its Concentration of maximum stimulation of adiponectin secretion? I mean this compound: CCc1ccc(CCOc2ccc(CC3SC(=O)NC3=O)cc2)nc1 (centres unmarked) [Pioglitazone]
1.25

Can you share its Concentration of maximum stimulation of adiponectin secretion? I mean this compound: O=C(O)c1ccccc1O [salicylic acid]
173

Can you share its Concentration of maximum stimulation of adiponectin secretion? I mean this compound: Cc1c(C)c2c(c(C)c1O)CCC(C)(COc1ccc(CC3SC(=O)NC3=O)cc1)O2 (centres unmarked) [Troglitazone]
0.625

* * *

Answer each item with its documented Maximum adiponectin stimulation.
# System: LPS-treated 3T3-L1 adipocytes
# assay.protocol: Adiponectin secretion in LPS/3T3-L1 adipocytes
# Assay type: cell-based, murine
# assay.context: 100 ng/ml LPS, D5 3T3-L1
Number in %, nothing else.

Can you share its Maximum adiponectin stimulation? I mean this compound: COc1ccc2c(c1)c(CC(=O)O)c(C)n2C(=O)c1ccc(Cl)cc1 [Indomethacin, indomethacin]
9

Can you share its Maximum adiponectin stimulation? I mean this compound: CCc1ccc(CCOc2ccc(CC3SC(=O)NC3=O)cc2)nc1 (stereo not drawn) [Pioglitazone]
12

Can you share its Maximum adiponectin stimulation? I mean this compound: Cc1c(C)c2c(c(C)c1O)CCC(C)(COc1ccc(CC3SC(=O)NC3=O)cc1)O2 (stereo not drawn) [Troglitazone]
15

Can you share its Maximum adiponectin stimulation? I mean this compound: CC(C)Cc1ccc(C(C)C(=O)O)cc1 (stereo not drawn) [ibuprofen]
22
